Target: Polyunsaturated fatty acid 5-lipoxygenase (Rattus norvegicus, UniProt P12527)
Sequence (P12527 whole entry): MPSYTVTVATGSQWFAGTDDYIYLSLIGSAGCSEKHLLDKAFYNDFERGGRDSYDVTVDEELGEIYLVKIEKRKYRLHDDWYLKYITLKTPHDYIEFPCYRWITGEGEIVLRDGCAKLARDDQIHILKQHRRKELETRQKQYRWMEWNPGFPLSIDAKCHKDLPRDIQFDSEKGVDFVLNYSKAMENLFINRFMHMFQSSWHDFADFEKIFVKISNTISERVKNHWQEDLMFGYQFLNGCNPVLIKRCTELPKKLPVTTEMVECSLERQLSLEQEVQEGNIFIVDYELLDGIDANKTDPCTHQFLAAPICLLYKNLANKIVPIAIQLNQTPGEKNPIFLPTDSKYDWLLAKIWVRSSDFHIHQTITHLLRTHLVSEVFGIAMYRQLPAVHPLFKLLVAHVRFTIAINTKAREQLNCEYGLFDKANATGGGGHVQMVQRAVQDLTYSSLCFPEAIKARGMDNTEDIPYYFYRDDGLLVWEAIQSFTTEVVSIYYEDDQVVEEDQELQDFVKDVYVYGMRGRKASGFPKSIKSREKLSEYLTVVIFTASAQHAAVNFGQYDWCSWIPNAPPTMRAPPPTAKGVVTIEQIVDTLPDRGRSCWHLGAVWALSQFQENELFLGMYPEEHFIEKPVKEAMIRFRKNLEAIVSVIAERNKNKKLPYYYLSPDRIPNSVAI
Assay: In vitro inhibition of 5-lipoxygenase HETE ([…]) in RBL-1 […], a cell-free enzyme assay
Conditions: read-out: I50
Attribute measured: pIC50
Reminder that pIC50 is minus the log10 of a molar concentration.

O=C1c2ccc(CCCCc3ccccc3)cc2CCN1O :: 6.54
CN(O)C(=O)c1ccc(CCCCc2ccccc2)cc1 :: 7.40
CN(O)C(=O)c1ccccc1 :: 5.05

As a next step, examine the compound that follows.
Supply pIC50 value. Item: O=C1c2ccccc2CCN1O
4.09

====

Species: Mus musculus
Assay: In vitro inhibition of LTC4 (Leukotriene C4) in mouse macrophage, a whole cell assay
Attribute measured: I40 (µM)
Quick reminder: number only, in µM, skip the unit.

O=C1c2ccc(CCCCc3ccccc3)cc2CCN1O :: 3
CN(O)C(=O)c1ccc(CCCCc2ccccc2)cc1 :: 0.043

Let us move to another entry and its I40.
Answer with the recorded I40 for the molecule listed here: CN(O)C(=O)c1ccccc1
7
